System: Streptococcus pneumoniae
experiment summary: Antimicrobial activity against macrolide-resistant Streptococcus pneumoniae Ci137
Assay type: functional
Cut-off 4 µg/mL on MIC: below means MET, at or above means NOT MET.

sample smiles: CC[C@H]1OC(=O)[C@H](C)[C@@H](O[C@H]2C[C@@](C)(OC)[C@@H](OC(=O)CCN3CCN(c4cc5c(cc4F)c(=O)ccn5C4CC4)CC3)[C@H](C)O2)[C@H](C)[C@@H](O[C@@H]2O[C@H](C)C[C@H](N(C)C)[C@H]2O)[C@](C)(OC)C[C@@H](C)NC(=O)[C@H](C)[C@@H](O)[C@]1(C)O
target or test system: Streptococcus pneumoniae
class name: MET

Ask: Please check: MIC for CC[C@H]1OC(=O)[C@H](C)[C@@H](O[C@H]2C[C@@](C)(OC)[C@@H](OC(=O)CCN[C@@H](C)C(=O)Nc3ccc([N+](=O)[O-])cc3)[C@H](C)O2)[C@H](C)[C@@H](O[C@@H]2O[C@H](C)C[C@H](N(C)C)[C@H]2O)[C@](C)(OC)C[C@@H](C)NC(=O)[C@H](C)[C@@H](O)[C@]1(C)O , strictly under 4 µg/mL or not?
Reply: MET

Ask: Confirm or reject: MIC of CC[C@H]1OC(=O)[C@H](C)[C@@H](O[C@H]2C[C@@](C)(OC)[C@@H](OC(=O)CCN[C@H](C)c3ccc([N+](=O)[O-])cc3)[C@H](C)O2)[C@H](C)[C@@H](O[C@@H]2O[C@H](C)C[C@H](N(C)C)[C@H]2O)[C@](C)(OC)C[C@@H](C)NC(=O)[C@H](C)[C@@H](O)[C@]1(C)O lies strictly below 4 µg/mL
Reply: MET

Ask: Hi there! Is MIC for CC[C@H]1OC(=O)[C@H](C)[C@@H](O[C@H]2C[C@@](C)(OC)[C@@H](OC(=O)CCN[C@@H](C)C(=O)Nc3ccc([N+](=O)[O-])cc3)[C@H](C)O2)[C@H](C)[C@@H](O[C@@H]2O[C@H](C)C[C@H](N(C)C)[C@H]2O)[C@](C)(O)C[C@@H](C)NC(=O)[C@H](C)[C@@H](O)[C@]1(C)O below 4 µg/mL, do you know?
Reply: MET

Ask: Here's an entry: NCCNc1cc2c(cc1F)c(=O)c(C(=O)O)cn2C1CC1 . Is its MIC below 4 µg/mL?
Reply: NOT MET

Ask: Threshold test, MIC < 4 µg/mL: CC[C@H]1OC(=O)[C@H](C)[C@@H](O[C@H]2C[C@@](C)(OC)[C@@H](O)[C@H](C)O2)[C@H](C)[C@@H](O[C@@H]2O[C@H](C)C[C@H](N(C)C)[C@H]2O)[C@](C)(O)C[C@@H](C)NC(=O)[C@H](C)[C@@H](O)[C@]1(C)O
Reply: NOT MET

Ask: Hello, is MIC of the following compound strictly smaller than 4 µg/mL? CC[C@H]1OC(=O)[C@H](C)[C@@H](O[C@H]2C[C@@](C)(OC)[C@@H](OC(=O)CCN3CCN(c4cc5c(cc4F)c(=O)ccn5C4CC4)CC3)[C@H](C)O2)[C@H](C)[C@@H](O[C@@H]2O[C@H](C)C[C@H](N(C)C)[C@H]2O)[C@](C)(O)C[C@@H](C)NC(=O)[C@H](C)[C@@H](O)[C@]1(C)O
Reply: MET

Ask: Please state whether MIC is below 4 µg/mL for CC[C@H]1OC(=O)[C@H](C)[C@@H](O[C@H]2C[C@@](C)(OC)[C@@H](OC(=O)CCNCC(=O)Nc3cnc4ccccc4c3)[C@H](C)O2)[C@H](C)[C@@H](O[C@@H]2O[C@H](C)C[C@H](N(C)C)[C@H]2O)[C@](C)(OC)C[C@@H](C)NC(=O)[C@H](C)[C@@H](O)[C@]1(C)O
Reply: MET

Ask: Check if MIC falls below 4 µg/mL for CC[C@H]1OC(=O)[C@H](C)[C@@H](O[C@H]2C[C@@](C)(OC)[C@@H](OC(=O)CCNCC(=O)Nc3cccc4ncccc34)[C@H](C)O2)[C@H](C)[C@@H](O[C@@H]2O[C@H](C)C[C@H](N(C)C)[C@H]2O)[C@](C)(OC)C[C@@H](C)NC(=O)[C@H](C)[C@@H](O)[C@]1(C)O .
Reply: NOT MET

Ask: # check: MIC < 4 µg/mL for CC[C@H]1OC(=O)[C@H](C)[C@@H](O[C@H]2C[C@@](C)(OC)[C@@H](OC(=O)CCN[C@@H](C)c3ccc([N+](=O)[O-])cc3)[C@H](C)O2)[C@H](C)[C@@H](O[C@@H]2O[C@H](C)C[C@H](N(C)C)[C@H]2O)[C@](C)(OC)C[C@@H](C)NC(=O)[C@H](C)[C@@H](O)[C@]1(C)O
Reply: MET
